# target_desc: rat hepatic microsomal HMG CoA reductase (Rattus norvegicus)
# Construct: rat hepatic microsomal HMG CoA reductase; from tissue; host or cells: rat liver microsomes
# Sequence (P51639 whole entry): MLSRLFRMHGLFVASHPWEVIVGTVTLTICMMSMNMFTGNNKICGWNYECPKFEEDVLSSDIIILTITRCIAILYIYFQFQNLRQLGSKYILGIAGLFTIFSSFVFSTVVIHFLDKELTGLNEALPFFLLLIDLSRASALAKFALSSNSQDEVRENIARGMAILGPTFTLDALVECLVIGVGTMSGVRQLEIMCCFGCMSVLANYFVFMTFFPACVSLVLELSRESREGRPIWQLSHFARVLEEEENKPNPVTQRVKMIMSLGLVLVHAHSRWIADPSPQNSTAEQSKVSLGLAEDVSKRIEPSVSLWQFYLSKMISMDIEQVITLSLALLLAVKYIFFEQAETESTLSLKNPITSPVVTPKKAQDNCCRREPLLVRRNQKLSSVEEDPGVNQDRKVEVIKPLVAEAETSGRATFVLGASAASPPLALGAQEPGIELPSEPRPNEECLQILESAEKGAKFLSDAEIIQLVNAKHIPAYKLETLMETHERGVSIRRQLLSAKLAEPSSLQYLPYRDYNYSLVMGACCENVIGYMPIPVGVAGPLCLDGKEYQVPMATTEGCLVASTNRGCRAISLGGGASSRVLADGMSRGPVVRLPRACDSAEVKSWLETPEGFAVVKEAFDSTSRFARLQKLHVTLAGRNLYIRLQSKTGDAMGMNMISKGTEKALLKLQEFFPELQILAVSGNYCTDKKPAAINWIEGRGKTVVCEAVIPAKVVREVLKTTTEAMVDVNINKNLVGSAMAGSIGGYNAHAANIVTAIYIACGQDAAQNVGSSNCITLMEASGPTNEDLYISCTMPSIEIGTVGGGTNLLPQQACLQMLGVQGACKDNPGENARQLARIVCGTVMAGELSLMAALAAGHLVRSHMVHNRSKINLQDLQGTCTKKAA
# protocol_notes: inhibition of rat hepatic microsomal HMG CoA reductase activity in vitro (Table I)
# Type: biochemical
# conditions: 0.25 micrograms/ml
assay_metric: inhibition at 0.25 µg/mL
# answer = value followed by unit

Worked examples, 4 compounds total:
compound=COc1ccc(-n2c(/C=C/[C@@H]3C[C@@H](O)CC(=O)O3)c(C(C)C)c3ccccc3c2=O)cc1 value_observed=13%
compound=COC(=O)C[C@H](O)C[C@H](O)/C=C/c1c(-c2ccc(F)cc2)c2ccccc2c(=O)n1C(C)C value_observed=55%
compound=CC(C)c1c(/C=C/[C@@H]2C[C@@H](O)CC(=O)O2)n(-c2ccc(F)cc2)c(=O)c2ccccc12 value_observed=72%
compound=Cc1cc(-n2c(/C=C/[C@@H]3C[C@@H](O)CC(=O)O3)c(C(C)C)c3ccccc3c2=O)ccc1F value_observed=39%

Prompt: What inhibition at 0.25 µg/mL appears in the records for this compound with rat hepatic microsomal HMG CoA reductase (Rattus norvegicus)? CC(C)n1c(/C=C/[C@@H](O)C[C@@H](O)CC(=O)O)c(-c2ccc(F)cc2)c2ccccc2c1=O
Response: 65%

Prompt: Notebook: pull reported inhibition at 0.25 µg/mL for rat hepatic microsomal HMG CoA reductase (Rattus norvegicus), entry CC(C)n1c(/C=C/C2CC(O)CC(=O)O2)c(-c2ccc(F)cc2)c2ccccc2c1=O (centres unmarked)
Response: 29%

Prompt: Hello, I am looking for reported inhibition at 0.25 µg/mL with rat hepatic microsomal HMG CoA reductase (Rattus norvegicus) for CC(C)c1c(/C=C/[C@@H]2C[C@@H](O)CC(=O)O2)n(-c2ccc(Cl)cc2)c(=O)c2ccccc12 . Could you help?
Response: 35%

Prompt: Hello, I am looking for reported inhibition at 0.25 µg/mL with rat hepatic microsomal HMG CoA reductase (Rattus norvegicus) for O=C1C[C@H](O)C[C@@H](/C=C/c2c(-c3ccc(F)cc3)c3ccccc3c(=O)n2CC2CC2)O1 . Could you help?
Response: 35%

Prompt: Missing value: inhibition at 0.25 µg/mL, rat hepatic microsomal HMG CoA reductase (Rattus norvegicus), entry CC(C)c1c(/C=C/[C@@H]2C[C@@H](O)CC(=O)O2)n(C2CCCCC2)c(=O)c2ccccc12 . Fill in?
Response: 77%

Prompt: Any idea what inhibition at 0.25 µg/mL came out for CC(C)n1c(/C=C/[C@@H]2C[C@@H](O)CC(=O)O2)c(-c2ccc(F)cc2)c2ccccc2c1=O on rat hepatic microsomal HMG CoA reductase (Rattus norvegicus)?
Response: 66%

Prompt: Record CC(C)c1c(CC[C@@H]2C[C@@H](O)CC(=O)O2)n(-c2ccc(F)cc2)c(=O)c2ccccc12 : what is its inhibition at 0.25 µg/mL with rat hepatic microsomal HMG CoA reductase (Rattus norvegicus)?
Response: 31%

Prompt: Lab request: please report inhibition at 0.25 µg/mL under test system rat hepatic microsomal HMG CoA reductase (Rattus norvegicus) for CC(C)c1c(/C=C/[C@@H]2C[C@@H](O)CC(O)O2)n(-c2ccc(F)cc2)c(=O)c2ccccc12 (mixture of isomers)
Response: 18%

Prompt: What value of inhibition at 0.25 µg/mL on rat hepatic microsomal HMG CoA reductase (Rattus norvegicus) does CC(C)n1c(CC[C@@H]2C[C@@H](O)CC(=O)O2)c(-c2ccc(F)cc2)c2ccccc2c1=O have?
Response: 38%

Prompt: Query inhibition at 0.25 µg/mL on rat hepatic microsomal HMG CoA reductase (Rattus norvegicus) for CC(C)c1c(/C=C/[C@@H](O)C[C@@H](O)CC(=O)O)n(-c2ccc(F)cc2)c(=O)c2ccccc12
Response: 74%
